Data provenance: PubChem BioAssay (NCI)

Test system: HL-60(TB) leukemia
Assay: NCI tumour cell line growth inhibition, 48 h; in the data active = GI50 below about 0.43 µM; inactive = the rest
Your reply should match one of these outcome classes. active, inactive

Please review the entries below; each comes with its answer.
COMPOUND | CLASS_ASSIGNMENT
COc1cc(/C=C/c2cc(/C=C/c3ccc(O)c(OC)c3)n(C(=O)Nc3ccc(C)cc3)n2)ccc1O | active
O=S(=O)(Nc1ccccc1)c1ccc(C2CC3(Cl)C(Cl)=C(Cl)C2(Cl)C3(Cl)Cl)cc1 (stereo unspecified) | inactive
O=C1C[C@@H]2OCC=C3C[N+]4([O-])CC[C@]56c7ccccc7N1[C@H]5[C@H]2[C@H]3C[C@@H]64 (stereo partly specified) | inactive
O=[N+]([O-])c1ccc(N/N=C\c2cc(Br)ccc2O)nc1 | active
C/C(=C\c1csc(C)n1)[C@@H]1C[C@@H]2O[C@]2(C)CCC[C@H](C)[C@H](O)[C@@H](C)C(=O)C(C)(C)[C@@H](O)CC(=O)N1 | active

Turning now to a further record.
Dear colleague, could you share the recorded outcome for O=C1[C@H](Cc2ccc(O)cc2)N2C(=O)CCN(C(=O)NCc3ccccc3)[C@H]2CN1Cc1cccc2ccccc12 when you have a moment?
inactive

----------
Tested on: MDA-N
Assay: NCI tumour cell line growth inhibition, 48 h
MEASURED_PARAMETER: TGI

COMPOUND | TGI
COc1ccc(OC/C(N)=N/NC(=O)c2ccncc2)cc1 | > 100 µM
COC(=O)c1ccc(CCC2=CC(=O)C=CC2=O)cc1 | 27.6 µM
O=[N+]([O-])c1ccc2c3c1[C@@H]1O[C@@H]1c1cccc(c1-3)[C@@H]1O[C@H]21 | 10.5 µM
N#CC1=C(S)N(C2OC(CO)C(O)C(O)C2O)C(c2ccccc2)=CC1c1ccco1 (stereo not given) | > 100 µM
COC(=O)c1sc(=S)sc1SCc1cccc(CSc2sc(=S)sc2C(=O)OC)c1 | > 100 µM
NC(Cc1cc(I)c(Oc2ccc(O)c(I)c2)c(I)c1)C(=O)O (stereo not given) | > 100 µM

I have this compound here, Clc1ccc(C(OCn2ccnc2)c2nc3ccccc3[nH]2)c(Cl)c1 (stereo not given) , and I need its recorded TGI.
> 100 µM

Value lookup for TGI; key = O=C(OC1OC2COC(=O)c3cc(O)c(O)c(O)c3-c3c(cc(O)c(O)c3O)C(=O)OC3C2OC(=O)[C@@]24CC(=O)[C@@](O)(OC25C(=O)O[C@H]2[C@@H](O)CO[C@@]25O)C2(O)Oc5c(O)c(O)cc(c5C24)C(=O)OC13)c1cc(O)c(O)c(O)c1 (stereo not given in full)
> 100 µM

Query: TGI; subject: COC(=O)C1=C(OC)C(=P2(c3ccccc3)CC(c3ccccc3)=C2c2ccccc2)C(C(=O)OC)=C1C(=O)OC (stereo not given)
> 100 µM

Could you share which TGI value was measured for O=C(Nc1ccc(Cl)cc1Cl)C1C(=O)OC2(CCCCC2)OC1=O ?
61.2 µM

Would you mind telling me what TGI value was observed for COC(=O)/C=C1\C(CO[Si](C)(C)C(C)(C)C)OC(n2ccc(=O)[nH]c2=O)C1O (stereo not given) ?
> 66.4 µM

Fill blank: measured TGI of the compound C(=NC12CC3CC(CC(C3)C1)C2)C1CCCCC1 is ____.
> 100 µM

Returns the measured TGI for the input compound. Input: O=C(O)c1ccccc1/C=C1\Cc2cc3c(cc2C1=O)CCC3
38.9 µM

Returns the measured TGI for the input compound. Input: O=c1c2ccccc2nc2n1CCc1c-2[nH]c2ccccc12
28.5 µM

Request the reported TGI associated with O=C1/C(=C/c2ccc(Br)s2)NC(=S)N1CN1CCCCC1
> 100 µM
